Target: StOASS-B (Salmonella typhimurium, UniProt P29848)
Construct: His-tag (with TEV site) (cleaved yes); made in house; host or cells: E. coli Rosetta (DE3)
Sequence (P29848 whole entry): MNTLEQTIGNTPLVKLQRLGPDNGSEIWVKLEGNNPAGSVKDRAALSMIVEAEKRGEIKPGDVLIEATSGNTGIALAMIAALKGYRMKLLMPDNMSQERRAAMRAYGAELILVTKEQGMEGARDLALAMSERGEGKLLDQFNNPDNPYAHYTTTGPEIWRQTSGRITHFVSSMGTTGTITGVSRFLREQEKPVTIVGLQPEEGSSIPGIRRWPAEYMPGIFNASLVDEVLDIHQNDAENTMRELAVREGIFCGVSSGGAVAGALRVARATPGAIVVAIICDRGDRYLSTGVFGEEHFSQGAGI
Test: Fluorescence binding assay on purified recombinant StOASS-B
Flag rule - Kd less than 3 µM flags criterion met; the remaining entries get criterion not met.

Illustrative cases are given below, each with its answer.
>>> labelclass("Cc1ccc(C[C@@]2(C(=O)O)C[C@H]2c2cccc(N3CCN(C)CC3)c2)cc1 (relative stereo) [Compound 21j]")
"criterion not met"
>>> labelclass("Cc1ccc(C[C@@]2(C(=O)O)C[C@H]2c2cccc(-c3ccccc3)c2)cc1 (relative stereo)")
"criterion not met"

Is 3 µM strictly greater than the compound's reported Kd? compound: Cc1ccc(CC2(C(=O)O)CC2c2cccc(N3CC(C)OC(C)C3)c2)cc1 (centres unmarked) [Compound 13h]
criterion not met

Is 3 µM strictly greater than the compound's reported Kd? compound: Cc1ccc(C[C@@]2(C(=O)O)C[C@H]2c2cccc(-c3cc(O)cc(F)c3)c2)cc1 (relative stereo)
criterion met

###

Tested on: MDBK cells
Assay: Cytotoxicity assay (MTT) on MDBK cells
Assay type: cell-based, bovine
Conditions: 32, 16, 8 µg/mL; MTT test
metric: Toxicity on viability of MDBK cells

>>> reading("CCOC(=O)[C@]1(Cc2ccc(C)cc2)C[C@H]1c1cccc(-c2cc(O)cc(F)c2)c1 (relative stereo)")
"high toxicity profiles"
>>> reading("CCOC(=O)[C@]1(Cc2ccc(C)cc2)C[C@H]1c1cccc(-c2cccc(F)c2)c1 (relative stereo)")
"proliferative effects"
>>> reading("CCOC(=O)C1(Cc2ccc(C)cc2)CC1c1cccc(-c2c[nH]nc2C)c1 (stereo not shown)")
"high toxicity profiles"
>>> reading("CCOC(=O)[C@]1(Cc2ccc(C)cc2)C[C@H]1c1cccc(N2CCOCC2)c1 (relative stereo) [Compound 12g]")
"proliferative effects"

###

Can you tell me Kd for the items I'm about to list?
Molecular target: StOASS-B (Salmonella typhimurium)
Construct: His-tag (with TEV site) (cleaved yes); made in house; host or cells: E. coli Rosetta (DE3)
Assay: Fluorescence binding assay on purified recombinant StOASS-B
One number for each entry, in µM.

Recorded Kd, per entry:
>>> reading("Cc1ccc(C[C@@]2(C(=O)O)C[C@H]2c2cccc(-c3cnc(N)nc3)c2)cc1 (relative stereo)")
1.29
>>> reading("Cc1ccc(C[C@@]2(C(=O)O)C[C@H]2c2cccc(N3CCOCC3)c2)cc1 (relative stereo) [Compound 13g]")
3.86
>>> reading("Cc1ccc(C[C@@]2(C(=O)O)C[C@H]2c2cccc(-c3cccc(F)c3)c2)cc1 (relative stereo)")
1.45

Now consider a different compound.
Item Cc1ccc(C[C@@]2(C(=O)O)C[C@H]2c2cccc(-c3c[nH]nc3C)c2)cc1 (relative stereo) with StOASS-B (Salmonella typhimurium) - Kd?
2.63

###

Biological target: StOASS-A (Salmonella typhimurium, UniProt P0A1E3)
Construct: His-tag (with TEV site) (cleaved yes); made in house; host or cells: E. coli Rosetta (DE3)
Sequence (P0A1E3 whole entry): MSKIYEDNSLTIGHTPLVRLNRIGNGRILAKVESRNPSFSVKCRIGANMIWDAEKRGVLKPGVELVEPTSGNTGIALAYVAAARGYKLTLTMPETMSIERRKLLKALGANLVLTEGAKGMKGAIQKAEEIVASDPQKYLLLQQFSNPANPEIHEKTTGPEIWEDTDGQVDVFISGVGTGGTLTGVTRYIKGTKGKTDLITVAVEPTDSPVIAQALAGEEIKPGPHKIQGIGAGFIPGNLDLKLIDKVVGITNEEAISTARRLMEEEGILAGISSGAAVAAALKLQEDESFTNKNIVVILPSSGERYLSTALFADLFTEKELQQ
Assay: Fluorescence binding assay on purified recombinant StOASS-A
Set-up: species or system S. Typhimurium
Details: 20 °C, 100 mM HEPES, 5% DMSO, pH 7.0; racemic mixture; esters tested up to 100 μM
metric: KD (μM) OASS-A

>>> reading("CCOC(=O)C1(Cc2ccc(C)cc2)CC1c1cccc(-c2c[nH]nc2C)c1 (stereo not drawn) [Compound 8b]")
"No binding"
>>> reading("CCOC(=O)[C@]1(Cc2ccc(C)cc2)C[C@H]1c1cccc(-c2cc(O)cc(F)c2)c1 (relative stereo) [Compound 8e]")
"No binding"
